target: GmhA of E. coli (Escherichia coli, UniProt P63224)
Sequence (P63224 whole entry): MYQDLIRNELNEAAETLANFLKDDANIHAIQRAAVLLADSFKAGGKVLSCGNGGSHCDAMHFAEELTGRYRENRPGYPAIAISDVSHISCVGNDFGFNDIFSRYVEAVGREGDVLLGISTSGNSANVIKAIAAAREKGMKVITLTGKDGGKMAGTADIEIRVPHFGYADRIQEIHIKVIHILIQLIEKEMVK
Structures can show the parent of a compound that is named as a salt.
endpoint name: IC50

**Q:** May I ask what IC50 has been recorded for N[C@H]1C(O)O[C@H]([C@H](O)COP(=O)(O)O)[C@@H](O)[C@@H]1O (stereo partly shown) [Example 2, hydrochloride] ?
**A:** < 100 µM

---

Biological target: UniProt:P76658
Sequence (P76658 whole entry): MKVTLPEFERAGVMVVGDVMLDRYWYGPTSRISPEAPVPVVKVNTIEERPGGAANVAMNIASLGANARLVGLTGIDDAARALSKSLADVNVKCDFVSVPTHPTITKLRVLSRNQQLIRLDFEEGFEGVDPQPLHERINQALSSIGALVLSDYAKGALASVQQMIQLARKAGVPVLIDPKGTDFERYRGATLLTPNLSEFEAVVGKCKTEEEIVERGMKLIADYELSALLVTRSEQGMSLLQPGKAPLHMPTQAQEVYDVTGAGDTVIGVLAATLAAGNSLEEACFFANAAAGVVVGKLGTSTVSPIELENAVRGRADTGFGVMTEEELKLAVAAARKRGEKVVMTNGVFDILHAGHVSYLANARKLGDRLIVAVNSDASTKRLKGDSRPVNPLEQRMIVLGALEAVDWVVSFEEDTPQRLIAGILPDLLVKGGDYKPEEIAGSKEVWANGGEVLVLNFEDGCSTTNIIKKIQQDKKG
Assay: Inhibition of the enzymatic activity of HldE-K (luminescent assay on kinase activity)
Type: biochemical
Conditions: 3nM HldE, 0.2µM β-heptose-7-phosphate, 0.2µM ATP; 30min pre-incubation
Method: Inhibition of the enzymatic activity of HldE-K (luminescent assay on kinase activity): The assay buffer "AB" contained 50 mM Hepes pH7.5, 1 mM MnCl2, 25 mM KCl, 0.012% Triton-X100 and 1mm dithiothreitol (DTT) and 0.1µM Myelin basic protein (MBP). […] Luminescence intensity was immediately measured on Luminoskan (Thermofischer) and converted into inhibition percentages. […]
Where a name gives a salt, the structure may show the parent alone.
endpoint name: IC50

**Q:** Recorded IC50 for N[C@H]1C(O)O[C@H]([C@H](O)COP(=O)(O)O)[C@@H](O)[C@@H]1O (stereo partly shown) [Example 2, hydrochloride] , please?
**A:** < 100 µM
